Where do these numbers come from? They come from paper PMC5540273.

Provide the recorded %Inh for the entries that follow.
System: FGFR2;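 further: KINOMEscan kinase panel screen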
condition notes: concentration: 1 μM, replicates: in singlicate; n = 1
Number in %, nothing else.

Input line: Tell me %Inh reported for COc1ccc(Nc2nccc(N3CCC(NC(=O)Nc4cc(C)ccc4C)C3)n2)cc1 (stereo not drawn)
Output line: 0

Input line: Tell me %Inh reported for "COC(=O)Nc1nc2cc(Oc3ccc(NC(=O)Nc4cc(F)ccc4F)cc3)ccc2[nH]1.Cl"
Output line: 0

Input line: Tell me %Inh reported for "CCc1ccnc(/C=C/c2n[nH]c3cc(Sc4ccccc4C(=O)NC)ccc23)c1"
Output line: 87

Input line: Tell me %Inh reported for "Fc1ccc(-c2nn3c(OCC(F)(F)F)cccc3c2-c2ccncc2)cc1"
Output line: 0

Input line: Tell me %Inh reported for "CSc1ccc(-c2cc3ncnc(SCC(=O)O)c3s2)cc1"
Output line: 0

Input line: Tell me %Inh reported for "COc1ccc(S(=O)(=O)NC2CCN(c3cc(C)nc(Nc4cccc(C#N)c4)n3)CC2)cc1.O=C(O)C(F)(F)F"
Output line: 0

Input line: Tell me %Inh reported for Cc1nnc(-c2ccc3ncc(-c4ccc(S(C)=O)cc4)n3c2)o1 (stereo not drawn)
Output line: 0

Input line: Tell me %Inh reported for "Cn1ccc2ncnc(Oc3ccc(NC(=O)Nc4ccncc4)c(Cl)c3)c21"
Output line: 0

Input line: Tell me %Inh reported for "COCCNC(=O)c1ccc(-c2cc(C(=O)NC3CC3)cc(F)c2C)cc1"
Output line: 3

Input line: Tell me %Inh reported for "COc1cc2ncn(-c3cc(OCc4sccc4Cl)c(C(N)=O)s3)c2cc1OC"
Output line: 15

Input line: Tell me %Inh reported for NCC(NC(=O)c1cc(-c2cn[nH]c2)c(-c2ccnc3[nH]ccc23)s1)c1ccccc1.O=C(O)C(F)(F)F.O=C(O)C(F)(F)F (stereo not drawn)
Output line: 0

Input line: Tell me %Inh reported for "Fc1ccc(-c2ncn(CCCN3CCOCC3)c2-c2cccnc2)cc1"
Output line: 0
